Assay: Cmax in rat at 31 mg/kg, po
Type: ADME, organism-based
Set-up: dose 31 mg/kg, route oral
Conditions: in vivo
Value Kind: Cmax

[ask] Would you kindly share the measured Cmax for CC(F)(F)CN1C(=O)[C@]2(C)COCCN2c2nc(-c3ccc(NC(=O)NC4CC4)cc3)ncc21 ?
[reply] 1910 to 2700 ng/mL

====

Test: Cmax in rat at 93 mg/kg, po
Type: ADME, organism-based
Set-up: dose 93 mg/kg, route oral
Conditions: in vivo
Value Kind: Cmax (ng/mL)
// return numeric value only (unit: ng/mL, not printed)

[ask] Quick one: Cmax of CC(F)(F)CN1C(=O)[C@]2(C)COCCN2c2nc(-c3ccc(NC(=O)NC4CC4)cc3)ncc21 ?
[reply] 7220

====

Test: Half-life in rat at 83 mg/kg, po
Type: ADME, organism-based
Conditions: in vivo
Value Kind: half-life (h)
Only the number, expressed in h, is required.

[ask] half-life lookup needed for CC(F)(F)CN1C(=O)[C@]2(C)COCCN2c2nc(-c3ccc(NC(=O)NC4CC4)cc3)ncc21 , thanks.
[reply] 5.4

====

Test: Cmax in rat at 100 mg/kg, po
Type: ADME, organism-based
Design: dose 100 mg/kg, route oral
Conditions: in vivo
Value Kind: Cmax

[ask] Please look up its Cmax: CC(F)(F)CN1C(=O)[C@]2(C)COCCN2c2nc(-c3ccc(NC(=O)NC4CC4)cc3)ncc21
[reply] 3670 to 6410 ng/mL

====

Assay: Tmax in mouse at 26 mg/kg, po
Format: ADME, organism-based
Settings: in vivo
Value Kind: Tmax (h)
Write the answer as a number in h, unit excluded.

[ask] Requested read-out: Tmax. Entry: CC(F)(F)CN1C(=O)[C@]2(C)COCCN2c2nc(-c3ccc(NC(=O)NC4CC4)cc3)ncc21
[reply] 6

====

Test: Half-life in mouse at 8.7 mg/kg, po
Type: ADME, organism-based
Conditions: in vivo
Value Kind: half-life (h)
Number only, in h; omit the unit.

[ask] Record request: half-life value, item CC(F)(F)CN1C(=O)[C@]2(C)COCCN2c2nc(-c3ccc(NC(=O)NC4CC4)cc3)ncc21
[reply] 2.3

====

Experiment: Half-life in dog at 0.2 mg/kg, iv
Format: ADME, organism-based, Canis lupus familiaris
Details: in vivo
Value Kind: half-life (h)
Report the figure in h without appending any unit label.

[ask] Report half-life for CC(F)(F)CN1C(=O)[C@]2(C)COCCN2c2nc(-c3ccc(NC(=O)NC4CC4)cc3)ncc21 please.
[reply] 7.5

====

Test: Cmax in rat at 95 mg/kg, po
Type: ADME, organism-based
Parameters: dose 95 mg/kg, route oral
Conditions: in vivo
Value Kind: Cmax (ng/mL)
Field format: number, assumed ng/mL, no unit text.

[ask] I have this compound here, CC(F)(F)CN1C(=O)[C@]2(C)COCCN2c2nc(-c3ccc(NC(=O)NC4CC4)cc3)ncc21 , and I need its recorded Cmax.
[reply] 2610

====

Test: Half-life in dog at 30 mg/kg, po
Format: ADME, organism-based, Canis lupus familiaris
Settings: in vivo
Value Kind: half-life (h)
Use h as the unit, but write only the number.

[ask] Entry CC(F)(F)CN1C(=O)[C@]2(C)COCCN2c2nc(-c3ccc(NC(=O)NC4CC4)cc3)ncc21 : reported half-life = ?
[reply] 9.2

Ref: ChEMBL document CHEMBL4359925
